- Test system: MCF7
- protocol_description: Cytotoxic activity against human MCF7 cells assessed as reduction in cell viability after 24 hrs by MTT assay
- condition_details: MCF7, 24 h

structure_smiles: COc1ccc(Nc2nc(N)nc(CSC(=S)N3CCOCC3)n2)cc1
EC50: 129 µM
